system: MS2 coat protein; experiment: apparent KD of MS2 coat protein; designed switch direction (-1 OFF switch, 1 ON switch): -1; higher = weaker reporter binding; conditions: input ligand: none
Kindly state apparent KD of MS2 coat protein for each of the entries shown.
# value in nM; strip the unit string

Prompt: Specify apparent KD of MS2 coat protein for CAGUACUGAGGAUAUACAUGAGGAUCACCCAUGUGAUUCAGUGCACGCGUACGUGUACGUAGAAGGCAGUACUG [JL 3.27 m2] (Eterna round: R97, puzzle: Exclusion 3) and stop.
Response: 49

Prompt: Given the sequence AUAAGUAUAUAGGAUAUCUAGCUGGAAACAGCUAGAGAAGGAUGUACAUGAGGAUCACCCAUGUAAAUCUCAAU [Ex6/12-A3] (Eterna round: R97, puzzle: Exclusion 6) , write its reported apparent KD of MS2 coat protein.
Response: 14.1

Prompt: Write down apparent KD of MS2 coat protein measured for item UAACAACAUGAGGAUCACCCAUGUGAGGAUAUGUACGUUCGUUGGCGAACCUUGUUCCGCAGAAGGCAUGUGGG [Eternabot (L1) Solution 28] (Eterna round: R97, puzzle: Exclusion 1)
Response: 38.6
